STUDY_TARGET: UniProt:Q05397
RUN_DESCRIPTION: FAK kinase inhibitor potency, dose response, biochemical (AID 810)
MEASUREMENT_PARAMETERS: Recombinant FAK kinase activity inhibition assay
The source made the active and inactive calls. The rule behind the calls is not given here.
OBSERVED_PROPERTY: IC50

INSERT INTO measurements (molecule, observed_property, test_value) VALUES
  ('O=[N+]([O-])c1cc(/C=N\Nc2nccs2)ccc1O', 'IC50', '5.82 µM'),
  ('O=c1c(/C=N/O)c(Nc2ccccc2)nc2ccccn12', 'IC50', 'inactive'),
  ('N#Cc1ccccc1/C=N/Nc1nc(-c2ccccc2)c2cc(Cl)ccc2n1', 'IC50', 'inactive'),
  ('COC(=O)c1cccc2c1-c1ccccc1/C2=N/O', 'IC50', '9.43 µM');

Q: Bench note: what IC50 did COc1cccc(CN2CC(O)=C(c3nc(-c4ccc(Cl)cc4)cs3)C2=N)c1 show?
Result: inactive

Q: Field entry: Cc1nn2c(c1-c1ccccc1)NC1=C(C(=O)CCC1)C2c1ccccc1 (stereo unspecified)
Result: > 70 µM (inactive)

Q: Field entry: COCCOC(=O)C1=C(C)NC2=C(C(=O)CC(c3cccs3)C2)C1c1ccsc1 (stereo unspecified)
Result: > 70 µM (inactive)

Q: Field entry: CCOC(=O)c1cccc2c1-c1ccccc1/C2=N/O
Result: inactive

----------
STUDY_TARGET: Focal adhesion kinase 1 (Homo sapiens) (UniProt Q05397)
Sequence (Q05397 whole entry, looked up): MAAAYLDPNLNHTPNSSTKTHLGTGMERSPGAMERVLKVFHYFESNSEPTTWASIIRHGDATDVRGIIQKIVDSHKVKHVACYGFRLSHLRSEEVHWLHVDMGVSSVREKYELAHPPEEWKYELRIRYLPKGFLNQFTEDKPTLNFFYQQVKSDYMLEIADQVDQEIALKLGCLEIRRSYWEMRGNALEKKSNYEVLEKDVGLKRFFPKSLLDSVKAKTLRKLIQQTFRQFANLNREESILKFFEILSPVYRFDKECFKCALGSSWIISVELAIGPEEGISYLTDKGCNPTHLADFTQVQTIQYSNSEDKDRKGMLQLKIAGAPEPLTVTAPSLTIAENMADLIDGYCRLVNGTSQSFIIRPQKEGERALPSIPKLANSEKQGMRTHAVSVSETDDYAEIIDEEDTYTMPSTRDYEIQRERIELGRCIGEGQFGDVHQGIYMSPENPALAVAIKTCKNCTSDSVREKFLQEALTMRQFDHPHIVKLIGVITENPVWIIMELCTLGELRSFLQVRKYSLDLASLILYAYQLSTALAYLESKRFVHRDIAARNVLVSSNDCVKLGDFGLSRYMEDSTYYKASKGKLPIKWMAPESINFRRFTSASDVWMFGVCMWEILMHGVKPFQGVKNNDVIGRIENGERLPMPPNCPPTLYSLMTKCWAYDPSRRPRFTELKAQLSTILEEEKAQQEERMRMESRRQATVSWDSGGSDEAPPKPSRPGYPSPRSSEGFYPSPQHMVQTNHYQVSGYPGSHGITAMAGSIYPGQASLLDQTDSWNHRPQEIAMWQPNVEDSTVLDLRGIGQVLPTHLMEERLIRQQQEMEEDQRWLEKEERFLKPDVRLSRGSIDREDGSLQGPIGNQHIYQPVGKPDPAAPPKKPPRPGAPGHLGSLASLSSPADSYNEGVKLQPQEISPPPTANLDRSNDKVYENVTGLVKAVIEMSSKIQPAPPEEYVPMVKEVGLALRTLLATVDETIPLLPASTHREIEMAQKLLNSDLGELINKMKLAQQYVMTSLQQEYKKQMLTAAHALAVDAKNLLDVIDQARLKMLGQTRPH
RUN_DESCRIPTION: FAK kinase inhibitor potency, dose response, biochemical (AID 810)
MEASUREMENT_PARAMETERS: Recombinant FAK kinase activity inhibition assay
Calls of active or inactive are those of the source. No rule for the calls is given here.
Answer with one of the outcomes given here: active, inactive

INSERT INTO measurements (compound, discrete_label) VALUES
  ('CCOC(=O)C1=C(c2ccccc2)OC(N)=C(C#N)C1c1cccs1 (stereo not drawn)', 'inactive');

Q: GET /call?item= CN1CCc2c(sc3ncn4nc(-c5ccccc5O)nc4c23)C1 returns the recorded outcome of this test.
Result: inactive

Q: Field entry: CCOC(=O)c1sc2c(c1C)C(c1cccs1)C1=C(CCCC1=O)N2 (stereo not drawn)
Result: inactive

Q: Field entry: O=C1C(c2ccnc3ccccc23)=C(O)c2ccccc21
Result: active

Q: Field entry: COc1cc(N=Cc2c(O)[nH]c3ccccc23)cc(OC)c1OC
Result: active

Q: Field entry: CCOC(=O)C1=C(c2ccccc2)OC(N)=C(C#N)C1C1CCCCC1 (stereo not drawn)
Result: inactive

Q: Field entry: CCOCCOC(=O)C1=C(C)NC2=C(C(=O)CC(c3cccs3)C2)C1c1ccsc1 (stereo not drawn)
Result: inactive

Q: Field entry: COC(=O)C1=C(C)NC2=C(C(=O)CC(c3cccs3)C2)C1c1ccsc1 (stereo not drawn)
Result: inactive
